Every entry's value here was drawn from patent US7232837B2.

ASSAY SYSTEM: β2 adrenergic receptors (Canis lupus familiaris, UniProt P54833)
Construct: Canine lung membranes (10 μg protein/100 ul) were incubated with ^125ICYP; from tissue; host or cells: mongrel dog lung membranes
Sequence (P54833 whole entry): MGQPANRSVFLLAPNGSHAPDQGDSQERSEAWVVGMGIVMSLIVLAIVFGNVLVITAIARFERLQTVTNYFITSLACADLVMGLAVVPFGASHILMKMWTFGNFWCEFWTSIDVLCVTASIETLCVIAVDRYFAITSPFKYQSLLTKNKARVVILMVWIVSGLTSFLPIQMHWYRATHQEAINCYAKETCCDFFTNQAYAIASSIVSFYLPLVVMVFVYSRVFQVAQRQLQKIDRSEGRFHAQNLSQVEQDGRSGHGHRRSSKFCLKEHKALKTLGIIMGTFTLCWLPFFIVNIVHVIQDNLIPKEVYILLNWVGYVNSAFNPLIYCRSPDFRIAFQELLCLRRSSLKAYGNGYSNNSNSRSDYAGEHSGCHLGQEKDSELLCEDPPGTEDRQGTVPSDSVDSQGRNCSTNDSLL
METHOD: Beta-2 binding, 125iodocyanopindolol (ICYP), canine lung membranes
Set-up: species or system canine (mongrel dogs)
PARTICULARS: Saturation Analysis, Run 1
QUANTITY MEASURED: pKd
Please note pKd is a logarithmic value: minus log10 of concentration in mol/L. Answer with that number alone.

CC(C)(C)NCC(O)COc1cccc2[nH]c(C#N)c(I)c12 (stereo not shown) yielded pKd of 11.02

###

ASSAY SYSTEM: β2 adrenergic receptors (Canis lupus familiaris)
Construct: Canine lung membranes (10 μg protein/100 ul) were incubated with ^125ICYP; from tissue; host or cells: mongrel dog lung membranes
METHOD: Beta-2 binding, 125iodocyanopindolol (ICYP), canine lung membranes
Design: species or system canine (mongrel dogs)
PARTICULARS: Saturation Analysis, Run 2
QUANTITY MEASURED: Kd (pM)
Kindly answer with a numeric value in pM, unit omitted.

Form field Kd, entry CC(C)(C)NCC(O)COc1cccc2[nH]c(C#N)c(I)c12 (stereo not shown) : 9.3
